tgt: Serine/threonine-protein kinase 25 (Homo sapiens, UniProt O00506)
Sequence (O00506 whole entry): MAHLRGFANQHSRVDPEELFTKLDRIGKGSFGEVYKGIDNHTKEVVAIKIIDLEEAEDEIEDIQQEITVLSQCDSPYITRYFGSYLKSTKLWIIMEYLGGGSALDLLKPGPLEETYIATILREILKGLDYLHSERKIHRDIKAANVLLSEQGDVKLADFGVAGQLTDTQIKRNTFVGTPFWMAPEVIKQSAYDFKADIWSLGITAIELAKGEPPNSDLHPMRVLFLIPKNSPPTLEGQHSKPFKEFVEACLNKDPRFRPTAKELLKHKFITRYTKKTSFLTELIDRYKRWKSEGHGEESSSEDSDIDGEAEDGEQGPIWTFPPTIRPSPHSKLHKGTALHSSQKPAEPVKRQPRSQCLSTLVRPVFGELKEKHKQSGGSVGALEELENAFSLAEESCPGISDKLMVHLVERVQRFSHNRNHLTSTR
recorded.metric: pIC50
// pIC50: -log10(molar conc.)

Prompt line: # lookup: pIC50 of CN1C(=O)[C@@H](N2CCc3cn(CC4CCS(=O)(=O)CC4)nc3C2=O)COc2ccccc21 [TP-030n]
Response line: 6.00

* * *

Glycogen synthase kinase-3 beta (Homo sapiens, UniProt P49841) measurements of pIC50, listed per entry.
Sequence (P49841 whole entry): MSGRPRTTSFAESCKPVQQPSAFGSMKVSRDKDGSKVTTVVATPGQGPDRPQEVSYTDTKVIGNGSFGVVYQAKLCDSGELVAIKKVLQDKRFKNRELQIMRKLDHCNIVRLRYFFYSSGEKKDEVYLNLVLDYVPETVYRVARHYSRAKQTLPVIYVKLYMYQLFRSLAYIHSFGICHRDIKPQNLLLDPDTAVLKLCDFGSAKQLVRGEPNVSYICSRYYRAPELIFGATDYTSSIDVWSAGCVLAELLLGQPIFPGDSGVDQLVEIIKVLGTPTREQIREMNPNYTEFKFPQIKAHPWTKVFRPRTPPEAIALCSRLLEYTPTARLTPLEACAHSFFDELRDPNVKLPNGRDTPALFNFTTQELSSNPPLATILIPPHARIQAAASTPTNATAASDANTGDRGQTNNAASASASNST
Field pIC50 (float): negative decimal logarithm of the concentration in molar.

Prompt line: What pIC50 appears in the records for this molecule with Glycogen synthase kinase-3 beta (Homo sapiens, UniProt P49841)? CN1C(=O)[C@@H](N2CCc3cn(Cc4ccccc4)nc3C2=O)COc2ccccc21
Response line: 6.00

Prompt line: Try this molecule too: CN1C(=O)[C@@H](N2CCc3cn(CC4CCS(=O)(=O)CC4)nc3C2=O)COc2ccccc21 [TP-030n]
Response line: 6.00
